TARGET SYSTEM: Inhibitor of nuclear factor kappa-B kinase subunit alpha (Homo sapiens);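 note: mean percent inhibition from GSK PKIS profiling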
ASSAY CONTEXT: at 0.1 µM
Quick reference: inhibition of the listed items.
MEASURED ATTRIBUTE: inhibition (%)

Fc1ccc(-c2c(-c3ccncc3)nc3n2CCS3)cc1 :: 7.58
c1ccc(-c2n[nH]cc2-c2ccnc(-c3ccc(OCCN4CCOCC4)cc3)c2)nc1 :: -2.42
COc1cc2ncn(-c3cc(OCCc4ccccc4)c(C(N)=O)s3)c2cc1OC :: 6.65
Cc1ccc(NC(=O)c2ccoc2)cc1-c1ccc(C(=O)NCC2CC2)cc1 :: 0.11
COc1ccc2ncn(-c3cc(O[C@H](C)c4ccccc4Cl)c(C(N)=O)s3)c2c1 :: 7.01
CCc1nccc2c1nc(-c1nonc1N)n2CC :: 2.04

====

In this section we review reported inhibition values for a set of molecules.
TARGET SYSTEM: Glycogen synthase kinase-3 beta (Homo sapiens);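 note: values are mean percent inhibition of GSK3B activity, from the GSK Published Kinase Inhibitor Set (PKIS) screening dataset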
ASSAY CONTEXT: at 0.1 µM
MEASURED ATTRIBUTE: inhibition (%)

CN(C)CCOc1ccc(-c2cc(-c3ccc4c(c3)CCC4=NO)c(-c3ccncc3)o2)cc1 :: -0.79
C[C@@H](Oc1cc(-n2cnc3ccc(OC4CCN(C)CC4)cc32)sc1C(N)=O)c1ccccc1Cl :: -1.76
Fc1ccc(-c2c(-c3ccncc3)nc3n2CCS3)cc1 :: -2.25
Fc1ccc(-c2ncn(C3CCNCC3)c2-c2ccnc(Oc3ccc(Oc4ccccc4)cc3)n2)cc1 :: 2.21
COc1ccc2cc(-c3c(-c4ccncc4)nc(-c4ccc(S(C)(=O)=O)cc4C)n3C)ccc2c1 :: 2.27
Fc1ccc(-c2nc3n(c2-c2ccncc2)CCS3)cc1 :: -1.43
CCC(=O)Nc1ccc(C)c(-c2ccc(C(=O)NCC3CC3)cc2)c1 :: 0.54
CN(c1ccc(NC(=O)Nc2c(Cl)cccc2Cl)cc1)c1ccnc(Nc2cccc(CS(C)(=O)=O)c2)n1 :: 4.11
C#Cc1cccc(Nc2ncnc3ccc(OCCCCNCCS(C)(=O)=O)cc23)c1 :: -0.71
COc1cc(N2CCN(C(C)C)CC2)ccc1Nc1nc(Nc2ccc(F)cc2C(=O)NC[C@@H](O)CO)c2cc[nH]c2n1 :: -0.78
Clc1ccc(CNc2nccc(-c3cnn4ncccc34)n2)cc1 :: 2.82
COc1ccc2ncn(-c3cc(O[C@H](C)c4ccccc4Cl)c(C(N)=O)s3)c2c1 :: -1.37
COC(=O)Nc1nc2ccc(Sc3ccc(NC(=O)Nc4cc(C(F)(F)F)ccc4F)cc3)cc2[nH]1 :: 2.16
Fc1ccc(-c2ncn(C3CCNCC3)c2-c2ccnc(Oc3ccc(F)c(F)c3)n2)cc1 :: -0.48
COc1ccc2cc(-c3c(-c4ccncc4)nc(-c4ccc([S+](C)[O-])cc4C)n3C)ccc2c1 (stereo not given) :: 5.99
CNC(=O)c1cncc(/C=C/c2c(C)cccc2C)c1 :: -1.93
CN(C)c1ccc2c(c1)/C(=C/Nc1ccc(S(N)(=O)=O)cc1)C(=O)N2 :: 6.03
CCS(=O)(=O)c1ccc(OC)c(Nc2ncc(-c3ccccc3Cl)o2)c1 :: 1.56
C/C(Nc1ccc(S(N)(=O)=O)cc1)=C1/C(=O)Nc2ccccc21 :: 1.17
Cc1ccc(C(=O)NC2CCC2)cc1-c1ccc(C(=O)NCC2CC2)cc1 :: 0.28

====

Recorded inhibition values for a group of compounds are listed next.
TARGET SYSTEM: Ephrin type-B receptor 3 (Homo sapiens);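 note: values are mean percent inhibition of EPHB3 from the GSK PKIS screening panel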
ASSAY CONTEXT: at 1 µM
MEASURED ATTRIBUTE: inhibition (%)

CN(C)CCOc1ccc(-c2cc(-c3ccc4c(c3)CCC4=NO)c(-c3ccncc3)o2)cc1 :: 5.63
CN1CCN(CCCNc2nc3ccc(Oc4ccc(NC(=O)Nc5cc(C(F)(F)F)ccc5F)cc4)cc3[nH]2)CC1 :: -6.41
Fc1ccc(-c2c(-c3ccncc3)nc3n2CCS3)cc1 :: 1.23
C[C@@H](Oc1cc(-n2cnc3ccc(OCC4CCN(C)CC4)cc32)sc1C(N)=O)c1ccccc1Cl :: 6.12
NS(=O)(=O)c1ccc(Nc2cc(-c3ccc(O)c(F)c3)n[nH]2)cc1 :: -5.11
